# TEST_NAME: Therapeutic index, ratio of EC50 for hemolysis of sheep erythrocytes to MIC for Staphylococcus aureus ATCC […]
# STUDY_CONDITIONS: read-out: TI
MEASURED_PROPERTY: selectivity ratio

Entry H-GLLKRIKTLL-NH2 [ANOPLIN] — recorded selectivity ratio = > 24.3

====

# TEST_NAME: Hemolytic activity in sheep erythrocytes after 1 hr
# Type: ADME, cell-based
# STUDY_CONDITIONS: Ovis aries, Erythrocyte
Numbered stars: 1 amine (or outer) side, 2 acyl side, 3 side chain; on linkers, the order of the positions; unused ones are H or OH. Square brackets hold non-standard residues; d marks the D form. Peptide text beside a SMILES is read from it. * marks the point of attachment. X1 = CCCCCCCCC[C@H](N[*:1])C(=O)[*:2]; Decanoyl = CCCCCCCCCC(=O)*
MEASURED_PROPERTY: EC50 (µg/mL)
Give your result in µg/mL as a bare value.

Worked set:
COMPOUND	UNIT_ABBREV	MEAS_VALUE
CCCCCCCCC[C@H](NC(=O)[C@H](CC(C)C)NC(=O)[C@@H](NC(=O)[C@H](CCCCN)NC(=O)[C@@H](NC(=O)[C@H](CCCNC(=N)N)NC(=O)[C@H](CCCCN)NC(=O)[C@H](CC(C)C)NC(=O)[C@H](CC(C)C)NC(=O)CN)[C@@H](C)CC)[C@@H](C)O)C(N)=O (H-GLLKRIKTL[X1]-NH2)	µg/mL	77
CCCCCCCCCC(=O)NCC(=O)N[C@@H](CC(C)C)C(=O)N[C@@H](CC(C)C)C(=O)N[C@@H](CCCCN)C(=O)N[C@@H](CCCNC(=N)N)C(=O)N[C@H](C(=O)N[C@@H](CCCCN)C(=O)N[C@H](C(=O)N[C@@H](CC(C)C)C(=O)N[C@@H](CC(C)C)C(N)=O)[C@@H](C)O)[C@@H](C)CC (Decanoyl-GLLKRIKTLL-NH2)	µg/mL	5
CCCCCCCCC[C@H](NC(=O)[C@H](CCCNC(=N)N)NC(=O)[C@H](CCCCN)NC(=O)[C@H](CC(C)C)NC(=O)[C@H](CC(C)C)NC(=O)CN)C(=O)N[C@@H](CCCCN)C(=O)N[C@H](C(=O)N[C@@H](CC(C)C)C(=O)N[C@@H](CC(C)C)C(N)=O)[C@@H](C)O (H-GLLKR[X1]KTLL-NH2)	µg/mL	39

The record that follows has no EC50 shown yet.
Measured EC50 of CCCCCCCCC[C@H](NC(=O)CN)C(=O)N[C@@H](CC(C)C)C(=O)N[C@@H](CCCCN)C(=O)N[C@@H](CCCNC(=N)N)C(=O)N[C@H](C(=O)N[C@@H](CCCCN)C(=O)N[C@H](C(=O)N[C@@H](CC(C)C)C(=O)N[C@@H](CC(C)C)C(N)=O)[C@@H](C)O)[C@@H](C)CC (H-G[X1]LKRIKTLL-NH2) : 108
